Here, each record is paired with measured pKi data.
SYSTEM: human GlyT1c transporter (Homo sapiens (Human))
Sequence (P48067 whole entry): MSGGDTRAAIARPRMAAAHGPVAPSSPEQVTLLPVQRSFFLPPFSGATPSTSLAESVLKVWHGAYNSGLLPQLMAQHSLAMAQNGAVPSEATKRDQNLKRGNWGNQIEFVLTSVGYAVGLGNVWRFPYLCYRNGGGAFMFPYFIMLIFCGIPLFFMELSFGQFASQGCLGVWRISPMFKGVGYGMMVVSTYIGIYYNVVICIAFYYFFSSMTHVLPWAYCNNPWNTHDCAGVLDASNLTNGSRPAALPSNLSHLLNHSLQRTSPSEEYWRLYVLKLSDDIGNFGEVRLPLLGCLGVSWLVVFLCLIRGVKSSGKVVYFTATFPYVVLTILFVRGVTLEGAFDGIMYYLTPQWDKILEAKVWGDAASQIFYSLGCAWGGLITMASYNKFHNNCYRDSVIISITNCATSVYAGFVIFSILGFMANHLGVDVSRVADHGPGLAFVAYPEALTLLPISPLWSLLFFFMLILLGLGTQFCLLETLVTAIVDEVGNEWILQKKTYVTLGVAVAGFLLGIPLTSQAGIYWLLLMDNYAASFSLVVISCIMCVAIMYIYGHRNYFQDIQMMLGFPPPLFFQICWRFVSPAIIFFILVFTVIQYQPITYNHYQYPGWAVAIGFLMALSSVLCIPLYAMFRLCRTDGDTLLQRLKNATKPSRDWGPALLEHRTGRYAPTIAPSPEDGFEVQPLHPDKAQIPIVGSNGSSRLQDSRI
TEST_DETAILS: Radioligand binding assays using recombinant CHO cell membranes expressing human GlyT1
CONDITION_INFO: read-out: radioligand binding Kiapp
pKi: −log10 of the molar value. Counter-ions that a name gives are not always drawn.

Example entries and their recorded answers appear below.
1) CN1CCC(Cc2ccccc2)(c2cccc(CNS(=O)(=O)c3cnn(C)c3)c2)C1 (centres unmarked) [Example 69]; ≥ 6.00
2) CN(Cc1cccc(C(CNC(=O)OC(C)(C)C)C2(c3ccc(Cl)cc3)CCC2)c1)S(=O)(=O)c1cn(C)cn1 (centres unmarked) [Example 41]; ≥ 5.00
3) Cn1cc(S(=O)(=O)NCCOc2cccc(C3(Cc4ccccc4)CCNC3)c2)cn1 (centres unmarked) [Example 60]; ≥ 7.00

In: Given the compound CN1CCC(Cc2ccccc2)(c2cccc(OCCNS(=O)(=O)c3cn(C)cn3)c2)C1 (centres unmarked) [Example 70] , what is its reported pKi?
Out: ≥ 7.00

In: Which pKi is listed for O=S(=O)(CC1CC1)NCc1cccc(C(Cc2ccccc2)CN2CCOCC2)c1 (centres unmarked) [Example 22, hydrochloride] ?
Out: ≥ 5.00

In: For Cn1cnc(S(=O)(=O)NCc2cccc(C(Cc3ccccc3)CN3CCOCC3)c2)c1 (centres unmarked) [Example 20] , what is its reported pKi?
Out: ≥ 5.00

In: Name the recorded pKi for Cn1cc(S(=O)(=O)NCCOc2cccc(C(Cc3ccccc3)CN3CCCC3)c2)cn1 (centres unmarked) [Example 34] .
Out: ≥ 6.00

In: Would you kindly share the measured pKi for CN1CCC(Cc2ccccc2)(c2cccc(OCCN(C)S(=O)(=O)c3cn(C)cn3)c2)C1 (centres unmarked) [Example 74] ?
Out: ≥ 6.00

====

SYSTEM: human GlyT1c transporter (Homo sapiens (Human))
TEST_DETAILS: Radioligand binding assays using recombinant CHO cell membranes expressing human GlyT1
CONDITION_INFO: read-out: radioligand binding Kiapp
Where a name gives a salt, the structure may show the parent alone.
EXPERIMENTAL_READOUT: Ki

1) Cn1cnc(S(=O)(=O)NCc2cccc(C(Cc3ccccc3)C(=O)N3CCOCC3)c2)c1 (stereo not drawn) [Example 17]; ≤ 10 µM
2) CCOC(=O)N1CC(Cc2ccccc2)(c2cccc(OCCNS(=O)(=O)CC3CC3)c2)C1 [Example 48]; ≤ 1 µM
3) CN(Cc1cccc(C(CN)C2(c3ccc(Cl)cc3)CCC2)c1)S(=O)(=O)c1cnn(C)c1 (stereo not drawn) [Example 45, hydrochloride]; ≤ 10 µM
4) Cn1cnc(S(=O)(=O)NCc2cccc(C(CN)Cc3ccccc3)c2)c1 (stereo not drawn) [Example 19, hydrochloride]; ≤ 1 µM
5) CN(C)CC(Cc1ccccc1)c1cc(OCCNS(=O)(=O)c2cn(C)cn2)ccc1F (stereo not drawn) [Example 23]; ≤ 0.1 µM

In: Entry Cn1cnc(S(=O)(=O)NCCOc2cccc(C3(Cc4ccccc4)CCN(CC(C)(C)C)C3)c2)c1 (stereo not drawn) [Example 76] : reported Ki = ?
Out: ≤ 0.1 µM

In: Please look up its Ki: CCOC(=O)N1CC(Cc2ccccc2)(c2cccc(OCCNS(=O)(=O)c3cnn(C)c3)c2)C1 [Example 46]
Out: ≤ 10 µM

In: May I ask what Ki has been recorded for Cn1cnc(S(=O)(=O)NCCOc2cccc(C(CN)Cc3ccccc3)c2)c1 (stereo not drawn) [Example 5] ?
Out: ≤ 0.1 µM

In: I'd like to know its Ki. The compound in question is Cn1cc(S(=O)(=O)NCCOc2cccc(C(CN)Cc3ccccc3)c2)cn1 (stereo not drawn) [Example 6, hydrochloride]
Out: ≤ 0.1 µM

In: Reported Ki for CN(C)CC(Cc1cccc(C(F)(F)F)c1)c1cccc(OCCNS(=O)(=O)c2cnn(C)c2)c1 (stereo not drawn) [Example 28] : what is it?
Out: ≤ 0.1 µM

In: Dear colleague, I am looking for the recorded Ki of the following compound: Cn1cnc(S(=O)(=O)NCCOc2cccc(C3(Cc4ccccc4)CCN(C(=O)C(F)F)C3)c2)c1 (stereo not drawn) [Example 71]
Out: ≤ 1 µM

In: For the compound shown here, Cn1cnc(S(=O)(=O)NCCOc2cccc(C3(Cc4ccccc4)CNC3)c2)c1 [Example 51] , give the reported Ki.
Out: ≤ 0.1 µM
